- Experimental Parameters: human

# Molecule, Hepatotoxicity (choleostasis)
rows = [
    ("O=C(c1ccccc1)c1ccc2n1CCC2C(=O)O (centres undefined)", 1),
    ("NS(=O)(=O)c1cc2c(cc1Cl)NC(C(Cl)Cl)NS2(=O)=O (centres undefined) [TRICHLORMETHIAZIDE]", 0),
    ("CCN(CC)C(=O)/C(C#N)=C/c1cc(O)c(O)c([N+](=O)[O-])c1", 2),
    ("FC(F)(F)C(Cl)Br (centres undefined)", 7),
    ("CC(NC(C)(C)C)C(=O)c1cccc(Cl)c1 (centres undefined)", 2),
    ("CNC(=O)[C@@H](NC(=O)[C@H](CC(C)C)[C@H](O)C(=O)NO)C(C)(C)C", 0),
    ("CC[N+](C)(C/C=C/C1=C(C(=O)[O-])N2C(=O)[C@@H](NC(=O)/C(=N\\OCF)c3nsc(N)n3)[C@H]2SC1)CC(N)=O (some centres undefined)", 0),
    ("NC(=O)c1cccnc1 [NIACINAMIDE]", 0),
    ("O=C(O)C[C@H](O)C[C@H](O)/C=C/c1c(C2CC2)nc2ccccc2c1-c1ccc(F)cc1", 0),
]

----------
- Experimental Parameters: human
Measured Hepatotoxicity (severe hepatitis) of individual entries

# Compound, Hepatotoxicity (severe hepatitis)
rows = [
    ("COC(=O)C1=C(C)NC(C)=C(C(=O)OCC(C)C)C1c1ccccc1[N+](=O)[O-] (configuration not stated)", 0),
    ("CC(C)[C@](O)(C(=O)OCC1=CC[N+]2([O-])CC[C@@H](O)[C@@H]12)[C@H](C)O (some centres not stated) [INDICINE N-OXIDE]", 4),
    ("COC1=C(C(=O)O)N2C(=O)[C@@H](NC(=O)[C@H](N)C3=CCC=CC3)[C@H]2SC1", 0),
    ("N=C(N)c1ccc(OCCCCCOc2ccc(C(=N)N)cc2)cc1", 2),
    ("COc1ccc(-n2nc(CCC(=O)N(C)O)cc2-c2ccc(Cl)cc2)cc1", 0),
    ("CC(C)(O)c1ccccc1CC[C@@H](SCC1(CC(=O)O)CC1)c1cccc(/C=C/c2ccc3ccc(Cl)cc3n2)c1", 0),
    ("Cc1cc2c(cc1CC(=O)c1sccc1S(=O)(=O)Nc1onc(C)c1Cl)OCO2", 0),
    ("CN(C)CC/C=C1/c2ccccc2Sc2ccc(Cl)cc21", 0),
    ("CC/C(=C(/CC)c1ccc(O)cc1)c1ccc(O)cc1", 1),
    ("CCN(CC)C(=O)N1CCN(C)CC1", 0),
    ("COCCc1ccc(OCC(O)CNC(C)C)cc1 (configuration not stated)", 0),
    ("CCNC(=O)[C@@H]1CCCN1C(=O)[C@H](CCCNC(=N)N)NC(=O)[C@H](CC(C)C)NC(=O)[C@@H](CC(C)C)NC(=O)[C@H](Cc1ccc(O)cc1)NC(=O)[C@H](CO)NC(=O)[C@H](Cc1c[nH]c2ccccc12)NC(=O)[C@H](Cc1c[nH]cn1)NC(=O)[C@@H]1CCC(=O)N1 [LEUPROLIDE]", 0),
    ("C[C@@H]1C[C@H]2[C@@H]3CCC4=CC(=O)C=C[C@]4(C)C3=CC[C@]2(C)[C@H]1C(=O)CN1CCN(c2cc(N3CCCC3)nc(N3CCCC3)n2)CC1", 0),
    ("O=C(NCCN1CCN(c2cccc3c2OC[C@H](CO)O3)CC1)c1ccc(F)cc1", 0),
    ("CS(=O)(=O)c1ccc(C2=C(c3ccccc3)C(=O)OC2)cc1", 0),
    ("O=C(O)Cc1nn(Cc2nc3cc(C(F)(F)F)ccc3s2)c(=O)c2ccccc12", 0),
    ("CCN(CC)CCn1c(-c2ccccc2)noc1=N", 0),
    ("O=c1n(CCCN2CCN(c3cccc(Cl)c3)CC2)nc2ccccn12", 1),
    ("CC[C@@H](CO)NC(=O)[C@@H]1C=C2c3cccc4[nH]cc(c34)C[C@H]2N(C)C1", 0),
    ("Nc1nc2[nH]cc(CCc3ccc(C(=O)N[C@@H](CCC(=O)O)C(=O)O)cc3)c2c(=O)[nH]1", 0),
    ("Cc1ccc(S(=O)(=O)NC(=O)NC2CCCCC2)cc1N [METAHEXAMIDE]", 2),
    ("CCCNCC(O)COc1ccccc1C(=O)CCc1ccccc1 (configuration not stated)", 0),
    ("COc1ccc2[nH]c([S+]([O-])Cc3ncc(C)c(OC)c3C)nc2c1 (configuration not stated)", 1),
    ("C=CCNc1nc(NCC=C)nc(N2CCN(C(c3ccc(F)cc3)c3ccc(F)cc3)CC2)n1", 0),
    ("CN(N=O)C(=O)N[C@@H](C=O)[C@@H](O)[C@H](O)[C@H](O)CO", 2),
    ("CC(C)c1nc(N(C)S(C)(=O)=O)nc(-c2ccc(F)cc2)c1/C=C/[C@@H](O)C[C@@H](O)CC(=O)O", 0),
    ("CCOC(=O)C1=C(C)NC(C)=C(C(=O)OCC)C1c1ccccc1/C=C/C(=O)OC(C)(C)C", 0),
    ("CCOC(=O)[C@H](CCc1ccccc1)N[C@@H](C)C(=O)N1CCC[C@H]1C(=O)O", 3),
    ("O=C1C(O)=C([C@H]2CC[C@H](c3ccc(Cl)cc3)CC2)C(=O)c2ccccc21", 0),
    ("COC(=O)Nc1nc2ccc(C(=O)c3ccccc3)cc2[nH]1", 0),
    ("COc1cccc2c1C(=O)c1c(O)c3c(c(O)c1C2=O)C[C@@](O)(/C(C)=N/NC(=O)c1ccccc1)C[C@@H]3O[C@H]1C[C@H](N)[C@H](O)[C@H](C)O1", 1),
    ("[H]/N=C(\\N/C(=N/[H])Nc1ccc(Cl)cc1)NC(C)C", 0),
]

----------
- Experimental Parameters: human
Experimental Endpoint: Hepatotoxicity (cytolytic)

# Molecule, Result
measured = [
    ("COc1cccc2c1C(=O)c1c(O)c3c(c(O)c1C2=O)C[C@@](O)(C(=O)CO)C[C@@H]3O[C@H]1C[C@H](N)[C@H](O)[C@H](C)O1", 4),
    ("CCCCNC(=O)NS(=O)(=O)c1ccc(N)cc1 [CARBUTAMIDE]", 1),
    ("Cc1ccc2c(c1)C(N1CCN(C)CC1)=Nc1ccccc1S2", 1),
    ("CC(Cc1ccccc1)NCCC(c1ccccc1)c1ccccc1 (stereo not given)", 0),
    ("C[C@]12CC[C@H]3[C@@H](CCC4=CC(=O)CC[C@@H]43)[C@@H]1CC[C@@H]2O", 3),
    ("O=C(O)CN1C(=O)c2cccc3cccc(c23)C1=O", 0),
    ("CC(N)C12CC3CC(CC(C3)C1)C2 (stereo not given)", 0),
    ("CC[C@H]1OC(=O)[C@H](C)[C@@H](O[C@H]2C[C@@](C)(OC)[C@@H](O)[C@H](C)O2)[C@H](C)[C@@H](O[C@@H]2O[C@H](C)C[C@H](N(C)C)[C@H]2O)[C@](C)(O)C[C@@H](C)C(=O)[C@H](C)[C@@H](O)[C@]1(C)O", 20),
    ("CN(C)C(=O)CCCOC(=O)C(C)(C)Oc1ccc(Cl)cc1 [CLOFIBRIDE]", 0),
    ("Cc1ccc(Cl)c(Nc2ccccc2C(=O)O)c1Cl", 0),
    ("[N-]=[N+]=O [NITROUS OXIDE]", 1),
    ("CCn1cc(C(=O)O)c(=O)c2ccc(C)nc21", 1),
    ("Nc1nc(O)c2ncn(COC(CO)CO)c2n1", 1),
    ("O=[N+]([O-])c1cc(Cl)cc(-c2cc(Cl)cc([N+](=O)[O-])c2O)c1O", 0),
    ("C[C@]12CC[C@H]3[C@@H](CCC4=CC(=O)CC[C@@]43C)[C@@H]1CC[C@@H]2O", 0),
    ("COc1ccc2[nH]cc(CCNC(C)=O)c2c1", 1),
    ("CCN(CC)CCN1C(=O)CN=C(c2ccccc2F)c2cc(Cl)ccc21", 0),
    ("CC(C)NCC(O)COc1cccc2[nH]ccc12 (stereo not given)", 0),
    ("N[C@@H]1CN(c2c(F)cc3c(=O)c(C(=O)O)cn([C@@H]4C[C@@H]4F)c3c2Cl)CC12CC2 [SITAFLOXACIN ANHYDROUS]", 0),
    ("O=C(CCBr)N1CCN(C(=O)CCBr)CC1", 1),
    ("O=C(Cc1cccs1)N[C@@H]1C(=O)N2C(C(=O)[O-])=C(C[n+]3ccccc3)CS[C@H]12", 0),
    ("CN(Cc1cnc2nc(N)nc(N)c2n1)c1ccc(C(=O)N[C@@H](CCC(=O)O)C(=O)O)cc1 [METHOTREXATE]", 21),
    ("C#CC(O)(/C=C/Cl)CC (stereo not given)", 0),
    ("CO[C@@H]1[C@H](OC(=O)/C=C/C=C/C=C/C=C/C(=O)O)CC[C@]2(CO2)[C@H]1[C@@]1(C)O[C@@H]1CC=C(C)C", 1),
    ("CC(CCC(=O)O)C1CC[C@H]2[C@@H]3CC[C@@H]4C[C@H](O)CC[C@]4(C)[C@H]3CC[C@]12C (stereo not given in full)", 0),
    ("CNC(=C[N+](=O)[O-])NCCSCc1ccc(CN(C)C)o1", 12),
    ("COc1cc2c(cc1OC)C(=O)C(CC1CCN(Cc3ccccc3)CC1)C2 (stereo not given)", 0),
    ("O=C1c2cccc(O)c2C(=O)c2c(O)cccc21", 0),
    ("O=C(CCNNC(=O)c1ccncc1)NCc1ccccc1 [NIALAMIDE]", 2),
    ("NC(=O)OC[C@@H]1[C@H](NC(=O)/C(=N\\OCC(=O)O)c2csc(N)n2)C(=O)N1S(=O)(=O)O", 0),
    ("CNC(=O)c1cccc2c(Nc3ccc(NS(C)(=O)=O)cc3OC)c3cccc(C)c3nc12", 0),
    ("Fc1ccc([C@@H]2CCNC[C@H]2COc2ccc3c(c2)OCO3)cc1", 5),
    ("O=c1n(CCCN2CCN(c3cccc(Cl)c3)CC2)nc2ccccn12", 5),
    ("CC1=C(/C=C/C(C)=C/C=C/C(C)=C/C(=O)O)C(C)(C)CCC1", 3),
    ("COC1=C(OC)C(=O)C(CCCCCCCCCCO)=C(C)C1=O", 0),
]

Taken from ChEMBL document CHEMBL3137667.
